Value source: paper PMC9332833

system: K562 cells; experiment: MTT viability test, K562; format: cell-based; details: Homo sapiens, K562; MTT, 48 h
Let's look at some compounds and their measured pIC50.
The value called pIC50 is obtained by taking minus log10 of the concentration in mol/L.

# Compound, Value Reported
rows = [
    ("COc1cccc2c1C(=O)c1c(O)c3c(c(O)c1C2=O)C[C@@](O)(C(=O)CO)C[C@@H]3O[C@H]1C[C@H](N)[C@H](O)[C@H](C)O1", 5.43),
]

[Q] Fill in: pIC50 of CCC12C(=O)C(CC)(C(c3ccccc3)=C1c1ccccc1)C1C(=O)N(CC(O)CNC(C)C)C(=O)C12 (centres unmarked) is ___
[A] 5.60

---

test: Pharmacokinetics in Wistar rats; assay type: in vivo, Wistar rat; details: Wistar, rat; IV 10 mg/kg, blood
Readout Type: half-life (min)
Report the value in min with no unit label.

[Q] Query (compound): CCC12C(=O)C(CC)(C(c3ccccc3)=C1c1ccccc1)C1C(=O)N(CC(O)CNC(C)C)C(=O)C12 (stereo not shown) [BK124.1] ; field requested: half-life
[A] 263

---

assay: Pharmacokinetics in Balb/c nude mice; assay type: in vivo; conditions: female, Balb/c nude, mouse; IP 20 mg/kg, blood
Readout Type: half-life (h)
Number only, in h; omit the unit.

[Q] # get_value(readout='half-life', item= CCC12C(=O)C(CC)(C(c3ccccc3)=C1c1ccccc1)C1C(=O)N(CC(O)CNC(C)C)C(=O)C12 (stereo not shown) )
[A] 3.53

---

experiment: Pharmacokinetics in Balb/c nude mice; assay type: in vivo; conditions: Balb/c nude; IP 20 mg/kg, whole blood, female mouse; extrapolated to t = 0
Readout Type: C0 (ng/mL)
Give your result in ng/mL as a bare value.

[Q] I have this compound here, CCC12C(=O)C(CC)(C(c3ccccc3)=C1c1ccccc1)C1C(=O)N(CC(O)CNC(C)C)C(=O)C12 (stereo not shown) , and I need its recorded C0.
[A] 1740

---

assay: Pharmacokinetics in Balb/c nude mice; type: in vivo; settings: Balb/c nude; IV 20 mg/kg, whole blood, female mouse
Readout Type: MRT last
Kindly write the number and append the unit.

[Q] Which value of MRT last has been reported for CCC12C(=O)C(CC)(C(c3ccccc3)=C1c1ccccc1)C1C(=O)N(CC(O)CNC(C)C)C(=O)C12 (stereo not shown) in the records?
[A] 4.78 h

---

assay: Pharmacokinetics in Balb/c nude mice; assay type: in vivo; conditions: Balb/c nude; IP 20 mg/kg, whole blood, female mouse
Readout Type: MRT last (h)
Give just the number in h; leave the unit off.

[Q] Entry under review: CCC12C(=O)C(CC)(C(c3ccccc3)=C1c1ccccc1)C1C(=O)N(CC(O)CNC(C)C)C(=O)C12 (stereo not shown) [BK124.1] . Reported MRT last?
[A] 5.09

---

assay: Pharmacokinetics in Balb/c nude mice; format: in vivo; settings: Balb/c nude; IV 20 mg/kg, whole blood, female mouse; extrapolated to t = 0
Readout Type: C0 (ng/mL)
I only need the number, in ng/mL, no unit after it.

[Q] Given CCC12C(=O)C(CC)(C(c3ccccc3)=C1c1ccccc1)C1C(=O)N(CC(O)CNC(C)C)C(=O)C12 (stereo not shown) [BK124.1] , state its recorded C0.
[A] 1020
